Tested on: ST258/KPC-35 mutant IMI 3.2
ASSAY EXPLANATION: MIC, broth microdilution
Format: cell-based
MEASUREMENT CONTEXT: Klebsiella pneumoniae
The following compounds are shown together with reported MIC values.

The following compounds have reported results that may help.
# COMPOUND, READOUT NAME, VALUE MEASURED
data = [
    ("NC[C@H]1O[C@H](O[C@H]2[C@H](O)[C@@H](O[C@H]3O[C@H](CO)[C@@H](O)[C@H](N)[C@H]3O)[C@H](N)C[C@@H]2N)[C@H](N)C[C@@H]1O [TOB, tobramycin]", "MIC", "> 8 µg/mL"),
    ("C[C@@H](O)[C@H]1C(=O)N2C(C(=O)O)=C(S[C@@H]3CN[C@H](C(=O)Nc4cccc(C(=O)O)c4)C3)[C@H](C)[C@H]12 [ETP, ertapenem]", "MIC", "> 8 µg/mL"),
]

We now examine a further compound.
// recorded MIC for C[C@H]1[C@H](NC(=O)/C(=N\OC(C)(C)C(=O)O)c2csc(N)n2)C(=O)N1S(=O)(=O)O [AZT, aztreonam] : > 16 µg/mL

###

Test system: E. coli HB4 KPC-31 (KPC-3 D179Y)
ASSAY EXPLANATION: MIC of recombinant strains
Type: cell-based
MEASUREMENT CONTEXT: Escherichia coli; E. coli HB4 expressing KPC-31 (KPC-3 D179Y) in pUCP24
The following compounds are shown together with reported MIC values.

The following compounds have reported results that may help.
# COMPOUND, ASSAY TARGET, READOUT NAME, VALUE MEASURED
rows = [
    ("C[C@@H](O)[C@H]1C(=O)N2C(C(=O)O)=C(S[C@@H]3CN[C@H](C(=O)N(C)C)C3)[C@H](C)[C@H]12", "E. coli HB4 KPC-31 (KPC-3 D179Y)", "MIC", "0.5 µg/mL"),
    ("CO/N=C(\\C(=O)N[C@@H]1C(=O)N2C(C(=O)[O-])=C(C[N+]3(C)CCCC3)CS[C@H]12)c1csc(N)n1 [FEP, cefepime]", "E. coli HB4 KPC-31 (KPC-3 D179Y)", "MIC", "32 µg/mL"),
    ("CC(C)(O/N=C(\\C(=O)N[C@@H]1C(=O)N2C(C(=O)[O-])=C(C[n+]3ccccc3)CS[C@H]12)c1csc(N)n1)C(=O)O", "E. coli HB4 KPC-31 (KPC-3 D179Y)", "MIC", "> 64 µg/mL"),
    ("C[C@@H](O)[C@H]1C(=O)N2C(C(=O)O)=C(SCCN=CN)C[C@H]12", "E. coli HB4 KPC-31 (KPC-3 D179Y)", "MIC", "0.25 µg/mL"),
]

// recorded MIC for C[C@H]1[C@H](NC(=O)/C(=N\OC(C)(C)C(=O)O)c2csc(N)n2)C(=O)N1S(=O)(=O)O : 4 µg/mL

###

The following molecules are shown together with reported MIC values.
Tested on: ST258/KPC-35 mutant IMI 2.1
ASSAY EXPLANATION: MIC, broth microdilution
Format: cell-based
MEASUREMENT CONTEXT: Klebsiella pneumoniae

# MOLECULE, ASSAY TARGET, VALUE MEASURED
measured = [
    ("C[C@H]1[C@H](NC(=O)/C(=N\\OC(C)(C)C(=O)O)c2csc(N)n2)C(=O)N1S(=O)(=O)O [AZT, aztreonam]", "ST258/KPC-35 mutant IMI 2.1", "> 16 µg/mL"),
    ("CO/N=C(\\C(=O)N[C@@H]1C(=O)N2C(C(=O)[O-])=C(C[N+]3(C)CCCC3)CS[C@H]12)c1csc(N)n1 [FEP, cefepime]", "ST258/KPC-35 mutant IMI 2.1", "> 16 µg/mL"),
    ("C[C@H]1COc2c(N3CCN(C)CC3)c(F)cc3c(=O)c(C(=O)O)cn1c23 [LEV, levofloxacin]", "ST258/KPC-35 mutant IMI 2.1", "> 8 µg/mL"),
]

// recorded MIC for C[C@@H](O)[C@H]1C(=O)N2C(C(=O)O)=C(SCCN=CN)C[C@H]12 [IMI, imipenem] : > 256 µg/mL

// recorded MIC for NC[C@H]1O[C@H](O[C@H]2[C@H](O)[C@@H](O[C@H]3O[C@H](CO)[C@@H](O)[C@H](N)[C@H]3O)[C@H](N)C[C@@H]2N)[C@H](N)C[C@@H]1O [TOB, tobramycin] : > 8 µg/mL

// recorded MIC for C[C@@H](O)[C@H]1C(=O)N2C(C(=O)O)=C(S[C@@H]3CN[C@H](C(=O)Nc4cccc(C(=O)O)c4)C3)[C@H](C)[C@H]12 [ETP, ertapenem] : > 8 µg/mL

// recorded MIC for C[C@@H](O)[C@H]1C(=O)N2C(C(=O)O)=C(S[C@@H]3CN[C@H](C(=O)N(C)C)C3)[C@H](C)[C@H]12 [MEM, meropenem] : > 64 µg/mL

// recorded MIC for CC(C)(O/N=C(\C(=O)N[C@@H]1C(=O)N2C(C(=O)[O-])=C(C[n+]3ccccc3)CS[C@H]12)c1csc(N)n1)C(=O)O [CAZ, ceftazidime] : 128 µg/mL

// recorded MIC for NCC[C@H](O)C(=O)N[C@@H]1C[C@H](N)[C@@H](O[C@H]2O[C@H](CN)[C@@H](O)[C@H](O)[C@H]2O)[C@H](O)[C@H]1O[C@H]1O[C@H](CO)[C@@H](O)[C@H](N)[C@H]1O [AMI, amikacin] : > 32 µg/mL

// recorded MIC for CNC(C)C1CCC(N)C(OC2C(N)CC(N)C(OC3OCC(C)(O)C(NC)C3O)C2O)O1 (stereo not shown) [GEN, gentamicin] : 4 µg/mL

###

Test system: K. pneumoniae ST512/KPC-31 (KPC-3 D179Y) parental clinical isolate
ASSAY EXPLANATION: MIC, broth microdilution
Type: cell-based
MEASUREMENT CONTEXT: Klebsiella pneumoniae
READOUT NAME: MIC

// recorded MIC for C[C@@H](O)[C@H]1C(=O)N2C(C(=O)O)=C(S[C@@H]3CN[C@H](C(=O)Nc4cccc(C(=O)O)c4)C3)[C@H](C)[C@H]12 [ETP, ertapenem] : > 8 µg/mL

// recorded MIC for CNC(C)C1CCC(N)C(OC2C(N)CC(N)C(OC3OCC(C)(O)C(NC)C3O)C2O)O1 (centres unmarked) [GEN, gentamicin] : 4 µg/mL

###

The following compounds are shown together with reported MIC values.
Tested on: ST512/KPC-31 mutant IMI 1.1
ASSAY EXPLANATION: MIC, broth microdilution
Format: cell-based
MEASUREMENT CONTEXT: Klebsiella pneumoniae

# COMPOUND, MIC
rows = [
    ("CO/N=C(\\C(=O)N[C@@H]1C(=O)N2C(C(=O)[O-])=C(C[N+]3(C)CCCC3)CS[C@H]12)c1csc(N)n1 [FEP, cefepime]", "> 16 µg/mL"),
    ("NCC[C@H](O)C(=O)N[C@@H]1C[C@H](N)[C@@H](O[C@H]2O[C@H](CN)[C@@H](O)[C@H](O)[C@H]2O)[C@H](O)[C@H]1O[C@H]1O[C@H](CO)[C@@H](O)[C@H](N)[C@H]1O [AMI, amikacin]", "> 32 µg/mL"),
    ("C[C@H]1[C@H](NC(=O)/C(=N\\OC(C)(C)C(=O)O)c2csc(N)n2)C(=O)N1S(=O)(=O)O [AZT, aztreonam]", "> 16 µg/mL"),
    ("C[C@H]1COc2c(N3CCN(C)CC3)c(F)cc3c(=O)c(C(=O)O)cn1c23 [LEV, levofloxacin]", "> 8 µg/mL"),
    ("NC[C@H]1O[C@H](O[C@H]2[C@H](O)[C@@H](O[C@H]3O[C@H](CO)[C@@H](O)[C@H](N)[C@H]3O)[C@H](N)C[C@@H]2N)[C@H](N)C[C@@H]1O [TOB, tobramycin]", "> 8 µg/mL"),
    ("CC(C)(O/N=C(\\C(=O)N[C@@H]1C(=O)N2C(C(=O)[O-])=C(C[n+]3ccccc3)CS[C@H]12)c1csc(N)n1)C(=O)O [CAZ, ceftazidime]", "> 256 µg/mL"),
]

// recorded MIC for C[C@@H](O)[C@H]1C(=O)N2C(C(=O)O)=C(S[C@@H]3CN[C@H](C(=O)Nc4cccc(C(=O)O)c4)C3)[C@H](C)[C@H]12 [ETP, ertapenem] : > 8 µg/mL

// recorded MIC for C[C@@H](O)[C@H]1C(=O)N2C(C(=O)O)=C(S[C@@H]3CN[C@H](C(=O)N(C)C)C3)[C@H](C)[C@H]12 [MEM, meropenem] : > 64 µg/mL

// recorded MIC for CNC(C)C1CCC(N)C(OC2C(N)CC(N)C(OC3OCC(C)(O)C(NC)C3O)C2O)O1 (stereo not shown) [GEN, gentamicin] : 4 µg/mL

// recorded MIC for C[C@@H](O)[C@H]1C(=O)N2C(C(=O)O)=C(SCCN=CN)C[C@H]12 [IMI, imipenem] : > 256 µg/mL
